SYSTEM_UNDER_TEST: CFTR (F508del/MF-HBE cells) (Homo sapiens, UniProt P13569, DEL508-508)
Construct: human bronchial epithelial (HBE) cells derived from CF subjects heterozygous for F508del and a minimal function CFTR mutation; endogenous in cells
Sequence (P13569 with tags, fused parts or gaps DEL508-508): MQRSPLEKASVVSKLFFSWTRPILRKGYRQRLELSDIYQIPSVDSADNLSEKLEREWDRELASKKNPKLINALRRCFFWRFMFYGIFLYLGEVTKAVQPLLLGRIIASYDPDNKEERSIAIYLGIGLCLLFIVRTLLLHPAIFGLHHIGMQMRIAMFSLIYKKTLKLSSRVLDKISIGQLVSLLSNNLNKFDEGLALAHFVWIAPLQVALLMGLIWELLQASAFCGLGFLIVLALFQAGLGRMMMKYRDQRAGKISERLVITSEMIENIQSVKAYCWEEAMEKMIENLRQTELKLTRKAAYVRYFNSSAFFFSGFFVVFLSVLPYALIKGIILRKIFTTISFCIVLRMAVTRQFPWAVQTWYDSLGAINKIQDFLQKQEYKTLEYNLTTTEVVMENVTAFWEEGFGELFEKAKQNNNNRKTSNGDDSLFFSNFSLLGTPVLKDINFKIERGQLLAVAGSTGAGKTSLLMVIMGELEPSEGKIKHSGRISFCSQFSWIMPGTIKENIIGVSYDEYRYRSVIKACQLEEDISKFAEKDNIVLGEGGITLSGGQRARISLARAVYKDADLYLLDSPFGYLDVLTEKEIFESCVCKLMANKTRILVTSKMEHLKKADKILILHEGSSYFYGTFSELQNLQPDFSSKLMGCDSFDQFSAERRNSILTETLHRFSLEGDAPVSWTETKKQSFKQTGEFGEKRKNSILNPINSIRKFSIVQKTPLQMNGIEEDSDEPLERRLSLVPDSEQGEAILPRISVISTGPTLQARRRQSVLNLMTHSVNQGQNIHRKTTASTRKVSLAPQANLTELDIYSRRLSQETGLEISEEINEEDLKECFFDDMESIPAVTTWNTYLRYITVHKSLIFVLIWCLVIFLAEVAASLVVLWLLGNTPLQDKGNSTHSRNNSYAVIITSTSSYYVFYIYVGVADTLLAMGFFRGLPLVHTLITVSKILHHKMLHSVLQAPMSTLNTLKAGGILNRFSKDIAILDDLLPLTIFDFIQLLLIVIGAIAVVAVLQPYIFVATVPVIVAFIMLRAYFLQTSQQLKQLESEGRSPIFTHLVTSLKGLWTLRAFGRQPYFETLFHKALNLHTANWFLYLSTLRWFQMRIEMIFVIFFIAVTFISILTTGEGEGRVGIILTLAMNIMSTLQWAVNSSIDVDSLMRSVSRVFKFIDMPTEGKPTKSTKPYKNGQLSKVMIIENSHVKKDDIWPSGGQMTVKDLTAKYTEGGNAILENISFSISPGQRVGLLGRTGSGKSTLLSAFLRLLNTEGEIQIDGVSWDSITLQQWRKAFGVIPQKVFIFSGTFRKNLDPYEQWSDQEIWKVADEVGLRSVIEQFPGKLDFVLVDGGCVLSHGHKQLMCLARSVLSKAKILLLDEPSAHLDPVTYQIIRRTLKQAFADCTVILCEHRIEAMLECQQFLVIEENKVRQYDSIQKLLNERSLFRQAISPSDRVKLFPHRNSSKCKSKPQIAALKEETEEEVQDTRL
TEST: Ussing chamber assay of CFTR-mediated short-circuit currents (identification of potentiator compounds)
APPLIED_CONDITIONS: CFTR-mediated ISC in F508del/MF-HBE cells; incubated 18-24 hours at 37° C. with 10 μM (14S)-8-[3-(2-{dispiro[2.0.2.1]heptan-7-yl}ethoxy)-1H-pyrazol-1-yl]-...-2,2,4-trione, 20% human serum
ASSAY_ENDPOINT: EC50

1. Nc1cc(C(F)(F)F)c2nc1-c1nnc(o1)[C@@](O)(C(F)(F)F)CCCCCC(C1CC1)N2 (single isomer, unassigned) [Compound 191]; < 500 nM
2. Nc1cc(S(=O)(=O)c2ccc(OC(F)(F)F)cc2)c2nc1-c1nnc(o1)C(O)(C(F)(F)F)CCCCC[C@@H]1CCCN21 (single isomer, unassigned) [Compound 153]; > 1000 nM
3. Cn1cc(-c2cc(N)c3nc2N2CCC[C@H]2CCCCCC(O)(C(F)(F)F)C2=NN=C3O2)cn1 (mixture of isomers); < 500 nM
4. CC(C)C1CCCCC[C@](O)(C(F)(F)F)C2=NN=C(O2)c2nc(c(C(F)(F)F)cc2N)N1 (single isomer, unassigned) [Compound 178]; < 500 nM
5. Nc1cc(C(F)(F)F)c2nc1-c1nnc(o1)C(O)(C(F)(F)F)CCCCC[C@@H]1COCC(=O)N21 (single isomer, unassigned) [Compound 117]; > 1000 nM

Query compound follows.
Q. Notebook: pull reported EC50 for CFTR (F508del/MF-HBE cells) (Homo sapiens, UniProt P13569, DEL508-508), entry CC(C)c1cc(N)c2nc1N1CCC[C@H]1CCCCCC(O)(C(F)(F)F)C1=NN=C2O1 (single isomer, unassigned)
A. < 500 nM

* * *

Measured EC50 of individual entries
SYSTEM_UNDER_TEST: CFTR (F508del/MF-HBE cells) (Homo sapiens, UniProt P13569, DEL508-508)
Construct: human bronchial epithelial (HBE) cells derived from CF subjects heterozygous for F508del and a minimal function CFTR mutation; endogenous in cells; host or cells: primary human bronchial epithelial cells from CF subjects (F508del/MF genotype)
TEST: Ussing chamber assay of CFTR-mediated short-circuit currents (identification of potentiator compounds)
Type: cell-based
APPLIED_CONDITIONS: CFTR-mediated ISC in F508del/MF-HBE cells; incubated 18-24 hours at 37° C. with 10 μM (14S)-8-[3-(2-{dispiro[2.0.2.1]heptan-7-yl}ethoxy)-1H-pyrazol-1-yl]-...-2,2,4-trione, 20% human serum

Reference set, count: 8
1) NC(=O)c1cc(N)c2nc1N1CCC[C@H]1CCCCCC(O)(C(F)(F)F)C1=NN=C2O1 (mixture of isomers) [Compound 142]; > 1 µM
2) Nc1cc(C(F)(F)F)c2nc1-c1nnc(o1)[C@](O)(C(F)(F)F)CCCCC[C@H]1CCCN21 (single isomer, unassigned) [Compound 6]; 0.5 to 1 µM
3) Nc1cc(C(F)(F)F)c2nc1-c1nnc(o1)C(O)(C(F)(F)F)CCCC(=O)N1CCN2CC1 (single isomer, unassigned) [Compound 38]; > 1 µM
4) CNc1cc(C(F)(F)F)c2nc1-c1nnc(o1)[C@](O)(C(F)(F)F)CCCCC[C@@H]1CCCN21 [Compound 15]; > 1 µM
5) Nc1cc(-c2ccccn2)c2nc1-c1nnc(o1)C(O)(C(F)(F)F)CCCCC[C@@H]1CCCN21 (mixture of isomers) [Compound 132]; > 1 µM
6) COc1cc(N)c2nc1N1CCC[C@H]1CCCCCC(O)(C(F)(F)F)C1=NN=C2O1 (single isomer, unassigned) [Compound 114]; < 0.5 µM
7) CC1(C)CCCCC[C@@](O)(C(F)(F)F)C2=NN=C(O2)c2nc(c(C(F)(F)F)cc2N)N1 [Compound 165]; > 1 µM
8) Nc1cc(C(F)(F)F)c2nc1-c1nnc(o1)C(O)(C(F)(F)F)CCCCCC(c1ccccc1)N2 (single isomer, unassigned) [Compound 122]; > 1 µM

Q. Query (compound): CN1CCC=CCCC(=O)C2=NN=C(O2)c2nc1c(C(F)(F)F)cc2N (mixture of isomers) [Compound 75] ; field requested: EC50
A. < 0.5 µM

Q. What would you report for Nc1cc(C(F)(F)F)c2nc1-c1nnc(o1)C(O)(C(F)(F)F)c1ccc(F)c(c1)CCC[C@@H]1CCCN21 (single isomer, unassigned) [Compound 130] ?
A. > 1 µM

Q. What would you report for Nc1cc(C(F)(F)F)c2nc1-c1nnc(o1)C(O)(C(F)(F)F)CCCCCC(CO)N2 (single isomer, unassigned) [Compound 102] ?
A. < 0.5 µM

Q. What would you report for CC1(C)CNc2nc(c(N)cc2C(F)(F)F)C2=NN=C(O2)[C@@](O)(C(F)(F)F)CCCO1 [Compound 186] ?
A. < 0.5 µM

Q. What would you report for CC1(C)CCC(O)CC[C@](O)(C(F)(F)F)C2=NN=C(O2)c2nc(c(C(F)(F)F)cc2N)N1 (single isomer, unassigned) [Compound 189] ?
A. > 1 µM
